# test: Human HepG2 cell viability assay in 384 well format
# Format: toxicity, cell-based
# Parameters: dose 125 nL, time 70.5 hour; concentration not given beside the values
# test context: HepG2 cells, read-out: Inhibition
cytotoxicity at 70.5 h values, listed per item
Numeric answer only, unit % assumed.

Use the examples below as a reference point.
* COc1ccc(OC)c(-n2nnnc2SCC2CCCCO2)c1 (stereo unspecified) | -6.66
* O=C1NCCN(Cc2ccoc2)C1CC(=O)N1CCc2sccc2C1 (stereo unspecified) | -0.766
* CCc1c(C)n(CC(C)=O)c2nc3ccccc3n2c1=O | -18.1
* Cc1ccc(NC2CCN(C(=O)c3ccc(C)o3)CC2)nn1 | -0.446
* Cc1ccc(N2C[C@H]3CCC[C@@H](CN(C)C)[C@H]3C2)nn1 | -0.102

Please look at the following compound next.
Task: Answer with reported cytotoxicity at 70.5 h of Cc1cccc(C2(NC(=O)CCN3C(=O)CCC3=O)CCCC2)c1
Output: -6.61

---

# test: Human HepG2 cell viability assay in 384 well format
# Type: toxicity, cell-based
# Design: dose 125 nL, time 70.5 hour; concentration not given beside the values
# test context: HepG2 cells, read-out: Inhibition
cytotoxicity at 70.5 h values, listed per item
Numeric answer only, unit % assumed.

- CSc1cccc(CN(C)C(=O)Cn2ncc(N(C)C)cc2=O)c1: -3.4

Task: Answer with reported cytotoxicity at 70.5 h of CCNC(=O)[C@@H]1C[C@H](NC(=O)c2ccc(C)s2)CN1Cc1ccc(C)o1
Output: 16.1

---

# test: Human HepG2 cell viability assay in 384 well format
# Type: toxicity, cell-based
# Design: dose 125 nL, time 70.5 hour; concentration not given beside the values
# test context: HepG2 cells, read-out: Inhibition
experimental endpoint: cytotoxicity at 70.5 h

• CCCC(Nc1c(C#N)c(=O)n(C)c(=O)n1C)c1ccc(F)cc1F (stereo unspecified) = 9.48%
• Cn1cc(C2CCCN2Cc2csc(C3CCCC3)n2)cn1 (stereo unspecified) = 0.499%
• Cc1nc2n(n1)CC(Nc1ccnc(-c3ccccc3)n1)CC2 (stereo unspecified) = -6.55%
• Cc1cc(C(=O)N2CCC(c3nccn3Cc3ccncc3)CC2)no1 = 1.65%
• Cc1ccncc1C(=O)N1CCCC(C(=O)CCc2ccccc2)C1 (stereo unspecified) = -7.97%
• CC(C)CS(=O)(=O)Nc1ccc2c(c1)OCC(C)(C)C(=O)N2C = 50.7%
• O=C(c1cn(-c2ccc(F)cc2)nn1)N1CCCC(n2cccn2)C1 (stereo unspecified) = -1.26%
• Cn1ccc(C(=O)N2CCCC(CNS(C)(=O)=O)C2)cc1=O (stereo unspecified) = -8.6%
• CS(=O)(=O)NC[C@]12COC[C@H]1CN(C(=O)C1CC=CC1)C2 = -3.37%
• COc1ccc(CNCCc2cc(F)cc3c2OCOC3)cc1O = 2.79%

Please look at the following compound next.
Task: Answer with reported cytotoxicity at 70.5 h of COCC1CC2(CCN(Cc3cnn(C)c3)CC2)CN1c1ncccn1 (stereo unspecified)
Output: -10.8%

---

cytotoxicity at 70.5 h values, listed per item
# test: Human HepG2 cell viability assay in 384 well format
# Assay type: toxicity, cell-based
# Parameters: dose 125 nL, time 70.5 hour; concentration not given beside the values
# test context: HepG2 cells, read-out: Inhibition
Give the number first and the unit second.

- COCC1CN(Cc2ccoc2)Cc2cn(CC3CCCC3)nc21 (centres undefined): -4.4%
- CN1CCN(Cc2cnc3n2CCN(C(=O)c2cnccn2)C3)CC1: -4.26%
- Cc1ccccc1-c1cncc(C2CCN(CC(=O)N(C)C)CC2)n1: -3.4%
- COc1ccc(CC(=O)N2CCCN(c3ccc(C#N)cc3)CC2)cc1: -2.17%

Task: Answer with reported cytotoxicity at 70.5 h of O=C(CCc1nc(-c2ccccn2)no1)N1CCCC1c1ccsc1 (centres undefined)
Output: -10.3%

Task: Answer with reported cytotoxicity at 70.5 h of CN1CCCN(C[C@@H]2CN(C(=O)CC3CCC3)C[C@@H]2CO)CC1
Output: -2.25%

Task: Answer with reported cytotoxicity at 70.5 h of Cn1nccc1-c1ccc2nc(C3CCN(CCO)CC3)nn2c1
Output: -2.61%

Task: Answer with reported cytotoxicity at 70.5 h of COc1cccc(-c2noc(C3CCN(Cc4ccncc4)C3)n2)c1 (centres undefined)
Output: -3.26%

Task: Answer with reported cytotoxicity at 70.5 h of c1cnnc(N2CCCC2CNCc2nnc(C3CC3)o2)c1 (centres undefined)
Output: -3.19%

Task: Answer with reported cytotoxicity at 70.5 h of CC(C)CN1C[C@@H](C(=O)O)C[C@@H](C(=O)NCc2ccncc2)C1
Output: -2.12%

Task: Answer with reported cytotoxicity at 70.5 h of CCCN1CCN(Cc2cccc(OC)c2)[C@H]2CS(=O)(=O)C[C@H]21
Output: 25.9%

Task: Answer with reported cytotoxicity at 70.5 h of CSCCC1c2nc[nH]c2CCN1Cc1ccccc1C#N (centres undefined)
Output: -6.75%

Task: Answer with reported cytotoxicity at 70.5 h of O=C(Nc1cccnc1)Nc1cccc(CN2CCC(O)CC2)c1
Output: 10.2%

Task: Answer with reported cytotoxicity at 70.5 h of COCCN1CCCC(c2nccnc2Nc2nc(C)cs2)C1 (centres undefined)
Output: -4.96%

---

# test: Human HepG2 cell viability assay in 384 well format
# Format: toxicity, cell-based
# Set-up: dose 125 nL, time 70.5 hour; concentration not given beside the values
# test context: HepG2 cells, read-out: Inhibition
experimental endpoint: cytotoxicity at 70.5 h (%)
Numeric answer only, unit % assumed.

Use the examples below as a reference point.
* CCc1cnc(N2CCN(CC(=O)Nc3c(C)n[nH]c3C)CC2)s1 | -3.55
* CC[C@@]1(O)CCN(C(=O)c2ccoc2)C[C@H]1O | -7.14
* CSCCN1C(=O)CC(C)(c2ccc(Br)cc2)C1=O (stereo not given) | -5.43
* Cn1ccc(CN2CCC(OCc3ccccc3)CC2)cc1=O | 21.5
* COCc1noc(CN2CCC3(CC2)[C@H](O)C[C@@H]3OC)n1 | -5.38

Task: Answer with reported cytotoxicity at 70.5 h of Cn1cccc1C(=O)N1C[C@H]2CN(Cc3cccnc3)C[C@H]2C1
Output: -1.49

Task: Answer with reported cytotoxicity at 70.5 h of COCC(=O)N1CCC(c2nccn2CC2CC2)CC1
Output: -8.88

Task: Answer with reported cytotoxicity at 70.5 h of Cc1ccc2c(c1)[C@@H](CC(=O)N1CCOCC1)CCO2
Output: 0.54

Task: Answer with reported cytotoxicity at 70.5 h of Cn1cc(C2CC3(CCN(C(=O)c4cccs4)CC3)NC2=O)cn1 (stereo not given)
Output: 1.02

Task: Answer with reported cytotoxicity at 70.5 h of O=C(NCCNc1ncccn1)C1CCCC1
Output: 15.4

Task: Answer with reported cytotoxicity at 70.5 h of CC(C)c1nn(C)c(N(C)C)c1CNCCC(=O)N(C)C
Output: -2.45

Task: Answer with reported cytotoxicity at 70.5 h of CC(C)n1nnnc1-c1ccc(NC(=O)CCC(F)(F)F)cc1F
Output: -18

---

# test: Human HepG2 cell viability assay in 384 well format
# Type: toxicity, cell-based
# Set-up: dose 125 nL, time 70.5 hour; concentration not given beside the values
# test context: HepG2 cells, read-out: Inhibition
experimental endpoint: cytotoxicity at 70.5 h (%)
Numeric answer only, unit % assumed.

• CC(C)c1nc(C2CCCN2Cc2ccccc2C#N)no1 (stereo unspecified) = 5.38

Task: Answer with reported cytotoxicity at 70.5 h of Cn1ccnc1CN1C[C@@H](CN2CCCCCC2)[C@@H](CO)C1
Output: 1.19

Task: Answer with reported cytotoxicity at 70.5 h of O=C(NCCCOCc1ccco1)c1cccnc1N1CCOCC1
Output: 6.19

Task: Answer with reported cytotoxicity at 70.5 h of COc1c(C2CCCN2C(=O)c2cscn2)c(C)nn1C (stereo unspecified)
Output: 18.5

Task: Answer with reported cytotoxicity at 70.5 h of O=C(NCc1ccco1)N1CCCCC1c1nc(-c2ccncc2)no1 (stereo unspecified)
Output: -12.6

Task: Answer with reported cytotoxicity at 70.5 h of Cn1cc(CNC(=O)C2CCCN(Cc3cccc(F)c3)C2)cn1 (stereo unspecified)
Output: -11.1

---

# test: Human HepG2 cell viability assay in 384 well format
# Type: toxicity, cell-based
# Design: dose 125 nL, time 70.5 hour; concentration not given beside the values
# test context: HepG2 cells, read-out: Inhibition
experimental endpoint: cytotoxicity at 70.5 h (%)
Numeric answer only, unit % assumed.

Use the examples below as a reference point.
- CC(=O)Nc1ccc(CNc2cccc(OCCF)c2)cc1: -5.76
- COc1ccc2ccccc2c1CNCC1CCS(=O)(=O)C1 (configuration not stated): -8.26
- Cc1nonc1NC(=O)C1SCCc2sccc21 (configuration not stated): 32.5
- CN(CCC#N)C(=O)CN1CCC(c2cc3ccccc3[nH]2)CC1: 4.21
- CCc1csc(C2CCCN(C(=O)c3ccc(=O)n(CC)n3)C2)n1 (configuration not stated): -5.74
- COc1ccc(-c2noc(C3CC(C(C)C)=NO3)n2)cc1 (configuration not stated): 1.77
- COCC1CC2(CCN(Cc3ccccn3)CC2)CN1C(C)C (configuration not stated): -7.51
- CC(=O)N1CCC2(CCN(Cc3cccc(F)c3)CC2)CC1: -2.12
- Cc1cc(C)n(CC(C)CNC(=O)N(C)Cc2ccco2)n1 (configuration not stated): -10.5
- NC(=O)C(NCc1cccs1)c1ccccc1 (configuration not stated): -9.69

Task: Answer with reported cytotoxicity at 70.5 h of Cc1cc(C)c(CNC(=O)NCC(O)c2ccccc2)c(=O)[nH]1 (configuration not stated)
Output: -1.05

Task: Answer with reported cytotoxicity at 70.5 h of Cc1ccc(C(=O)NCc2ccc(N3CCNC(=O)C3)c(F)c2)cc1
Output: -0.234
